Form field: IC50 (one value per entry).
Target: Nanoluciferase-BRD9 fusion protein (Homo sapiens (Human))
Experiment: SYO1 BRD9 NanoLuc degradation assay
Type: cell-based
Conditions: Table 5A; SYO-1 cells expressing 3×FLAG-NLuc-BRD9, 6 hours

Answered cases to consult:
>>> assay_result("COc1cc(-c2cn(C)c(=O)c3cnccc23)cc(OC)c1CN(C)C1CC2CC1CN2C(=O)CCOCCOc1cccc2c1C(=O)N(C1CCC(=O)NC1=O)C2=O (stereo not drawn)")
"10 to 100 nM"
>>> assay_result("COc1cc(-c2cn(C)c(=O)c3cnccc23)cc(OC)c1CN(C)C1CCC12CCN(C(=O)CCOCCOc1cccc3c1C(=O)N(C1CCC(=O)NC1=O)C3=O)CC2 (stereo not drawn)")
"10 to 100 nM"
>>> assay_result("COc1cc(-c2cn(C)c(=O)c3cnccc23)cc(OC)c1CN(C)C12CC(NC(=O)CCOCCOCCNc3cccc4c3C(=O)N(C3CCC(=O)NC3=O)C4=O)(C1)C2 (stereo not drawn)")
"< 10 nM"
>>> assay_result("COc1cc(-c2cn(C)c(=O)c3cnccc23)cc(OC)c1CN(C)CC1CC2(CCN(C(=O)CCOCCOc3ccc4c(c3)C(=O)N(C3CCC(=O)NC3=O)C4=O)CC2)O1 (stereo not drawn)")
"< 10 nM"
>>> assay_result("COc1cc(-c2cn(C)c(=O)c3cnccc23)cc(OC)c1CN1CC(C(=O)N2CCC(C3CCN(C(=O)COc4cccc5c4C(=O)N(C4CCC(=O)NC4=O)C5=O)CC3)CC2)C1 (stereo not drawn)")
"< 10 nM"

Now look at this entry.
Lab request: please report IC50 under test system Nanoluciferase-BRD9 fusion protein (Homo sapiens (Human)) for COc1cc(-c2cn(C)c(=O)c3cnccc23)cc(OC)c1CN(C)CC12CC(C(=O)NCCOCCOCCNc3cccc4c3C(=O)N(C3CCC(=O)NC3=O)C4=O)(C1)C2 (stereo not drawn)
100 to 1000 nM

====

Molecular target: Nanoluciferase-BRD9 fusion protein (Homo sapiens (Human), UniProt Q9H8M2)
Sequence (Q9H8M2 whole entry, the tested form may be a part): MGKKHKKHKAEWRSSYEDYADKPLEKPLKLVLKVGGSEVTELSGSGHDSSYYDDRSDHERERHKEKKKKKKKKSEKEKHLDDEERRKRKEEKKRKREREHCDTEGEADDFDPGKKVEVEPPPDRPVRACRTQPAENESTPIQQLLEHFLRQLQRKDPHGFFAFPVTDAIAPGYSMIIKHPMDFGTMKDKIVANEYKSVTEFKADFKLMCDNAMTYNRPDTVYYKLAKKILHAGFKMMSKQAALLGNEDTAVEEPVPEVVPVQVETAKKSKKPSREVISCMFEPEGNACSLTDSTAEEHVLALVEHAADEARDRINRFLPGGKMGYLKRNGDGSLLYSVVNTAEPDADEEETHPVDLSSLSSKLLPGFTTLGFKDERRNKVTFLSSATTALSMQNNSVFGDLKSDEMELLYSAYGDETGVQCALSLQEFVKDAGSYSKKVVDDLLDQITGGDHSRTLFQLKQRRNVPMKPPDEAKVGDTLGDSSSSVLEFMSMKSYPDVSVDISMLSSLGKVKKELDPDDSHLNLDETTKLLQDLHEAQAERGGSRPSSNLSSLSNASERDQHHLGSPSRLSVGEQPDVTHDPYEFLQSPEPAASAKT
Test: SYO1 BRD9 NanoLuc degradation assay
Assay type: cell-based
Details: Table 5B; SYO-1 cells expressing 3×FLAG-NLuc-BRD9, 6 hours; read-out: SYO1 BRD9-NanoLuc degradation IC50
OBSERVABLE: DC50

Answered cases to consult:
>>> assay_result("COc1cc(-c2cn(C)c(=O)c3cnccc23)cc(OC)c1CN1CCC(CN2CCC3(CC2)CC(Oc2ccc4c(c2)C(=O)N(C2CCC(=O)NC2=O)C4=O)C3)CC1 (centres unmarked)")
"< 10 nM"
>>> assay_result("COc1cc(-c2cn(C)c(=O)c3cnccc23)cc(OC)c1CN(C)CCCCN1CCCC2(CC(Oc3ccc4c(c3)C(=O)N([C@H]3CCC(=O)NC3=O)C4=O)C2)C1 (some centres unmarked)")
"< 10 nM"
>>> assay_result("COc1cc(-c2cn(C)c(=O)c3cnccc23)cc(OC)c1CN(C)C(=O)CCCCN1CCC2(C1)CN(c1ccc3c(c1)C(=O)N(C1CCC(=O)NC1=O)C3=O)C2 (centres unmarked)")
"< 10 nM"
>>> assay_result("COc1cc(-c2cn(C)c(=O)c3cnccc23)cc(OC)c1CN(C)CCCCN1CC2(CCN(c3ccc4c(c3)C(=O)N(C3CCC(=O)NC3=O)C4=O)CC2)C1 (centres unmarked)")
"< 10 nM"

Now look at this entry.
DC50 for COc1cc(-c2cn(C)c(=O)c(C#N)c2C)cc(OC)c1CN1CC(CN2CCC3(CC2)CN(c2ccc4c(c2)C(=O)N(C2CCC(=O)NC2=O)C4=O)C3)C1 (centres unmarked) ?
> 1000 nM
